# testMethodNotes: PK of compound of Formula (Ia) after single subcutaneous dose of solution formulations in Wistar Han rats
# Type: in vivo
# experimentalParameters: male, Wistar Han, rat, plasma, sc, 50 mg/kg, male Wistar Han rats, single SC 50 mg/kg, 400 mg/mL solution W (5.00% ethanol, 1.57% poloxamer 188), mean ± SD, n = 3; read-out: AUC0-168 h
assayMetric: AUC(0-t) (µM·h)

[[record]]
compound = "CC(C)(C#Cc1ccc(-c2ccc(Cl)c3c(NS(C)(=O)=O)nn(CC(F)(F)F)c23)c([C@H](Cc2cc(F)cc(F)c2)NC(=O)Cn2nc(C(F)(F)F)c3c2C(F)(F)[C@@H]2C[C@H]32)n1)S(C)(=O)=O [compound of Formula (Ia)]"
assaymetric = "AUC(0-t)"
valueobserved = 21.6


----------
# testMethodNotes: PK of compound of Formula (Ia) after single subcutaneous dose of solution formulations in Wistar Han rats
# Type: in vivo
# experimentalParameters: male, Wistar Han, rat, plasma, sc, 50 mg/kg, 2352 h; mean, n = 3 rats; SC 50 mg/kg; solution R, 400 mg/mL
# Procedure: Formulations containing the compound of Formula (Ia), or a pharmaceutically acceptable salt thereof, were prepared as solutions and optionally administered subcutaneously or intramuscularly to rats, rabbits, and/or dogs. A solution of about 400 mg/mL of the compound of Formula (Ia) having 19.14 w/w % water, 40.66 w/w % PEG 300, 35.20 w/w % of a sodium salt of a compound of Formula (Ia), and 5.00% ethanol was prepared. […]
assayMetric: concentration at 2352 h (nM)

[[record]]
smilesrepr = "CC(C)(C#Cc1ccc(-c2ccc(Cl)c3c(NS(C)(=O)=O)nn(CC(F)(F)F)c23)c([C@H](Cc2cc(F)cc(F)c2)NC(=O)Cn2nc(C(F)(F)F)c3c2C(F)(F)[C@@H]2C[C@H]32)n1)S(C)(=O)=O"
valueobserved = 182


----------
# testMethodNotes: PK of compound of Formula (Ia) after single subcutaneous dose of solution formulations in beagle dogs
# Assay type: in vivo
# experimentalParameters: male, beagle, dog, plasma, sc, 12 mg/kg, mean ± SD, n = 3 dogs; SC 12 mg/kg; solution U, 500 mg/mL; read-out: AUC0-672 h
assayMetric: AUC(0-t)

[[record]]
smilesrepr = "CC(C)(C#Cc1ccc(-c2ccc(Cl)c3c(NS(C)(=O)=O)nn(CC(F)(F)F)c23)c([C@H](Cc2cc(F)cc(F)c2)NC(=O)Cn2nc(C(F)(F)F)c3c2C(F)(F)[C@@H]2C[C@H]32)n1)S(C)(=O)=O"
valueobserved = "78.5 µM·h"


----------
# testMethodNotes: PK of compound of Formula (Ia) after single subcutaneous dose of solution formulations in Wistar Han rats
# Format: in vivo
# experimentalParameters: male, Wistar Han, rat, plasma, sc, 50 mg/kg, 48.0 h; mean, n = 3 rats; SC 50 mg/kg; solution S, 500 mg/mL
assayMetric: concentration at 48 h (nM)

[[record]]
smilesrepr = "CC(C)(C#Cc1ccc(-c2ccc(Cl)c3c(NS(C)(=O)=O)nn(CC(F)(F)F)c23)c([C@H](Cc2cc(F)cc(F)c2)NC(=O)Cn2nc(C(F)(F)F)c3c2C(F)(F)[C@@H]2C[C@H]32)n1)S(C)(=O)=O"
valueobserved = 123


----------
# testMethodNotes: PK of compound of Formula (Ia) after single subcutaneous dose of solution formulations in Wistar Han rats
# Type: in vivo
# experimentalParameters: male, Wistar Han, rat, plasma, sc, 50 mg/kg, mean ± SD, n = 3 rats; SC 50 mg/kg; solution R, 400 mg/mL; read-out: AUC0-1344h
assayMetric: AUC(0-t)

[[record]]
compound = "CC(C)(C#Cc1ccc(-c2ccc(Cl)c3c(NS(C)(=O)=O)nn(CC(F)(F)F)c23)c([C@H](Cc2cc(F)cc(F)c2)NC(=O)Cn2nc(C(F)(F)F)c3c2C(F)(F)[C@@H]2C[C@H]32)n1)S(C)(=O)=O [compound of Formula (Ia)]"
assaymetric = "AUC(0-t)"
valueobserved = "402 µM·h"


----------
# testMethodNotes: PK of compound of Formula (Ia) after single subcutaneous dose of solution formulations in beagle dogs
# Format: in vivo
# experimentalParameters: male, beagle, dog, plasma, sc, 12 mg/kg, male beagle dogs, single SC 12 mg/kg, 500 mg/mL solution X (5.00% ethanol, 1.91% poloxamer 188), mean ± SD, n = 3; read-out: AUC0-3024 h
# Description: Formulations containing the compound of Formula (Ia), or a pharmaceutically acceptable salt thereof, were prepared as solutions and optionally administered subcutaneously or intramuscularly to rats, rabbits, and/or dogs. A solution of about 400 mg/mL of the compound of Formula (Ia) having 17.00 w/w % water, 36.40 w/w % PEG 300, 35.20 w/w % of a sodium salt of a compound of Formula (Ia), 5.00 w/w % ethanol, and 6.40 w/w % poloxamer 188 was prepared. […]
assayMetric: AUC(0-t) (µM·h)

[[record]]
smilesrepr = "CC(C)(C#Cc1ccc(-c2ccc(Cl)c3c(NS(C)(=O)=O)nn(CC(F)(F)F)c23)c([C@H](Cc2cc(F)cc(F)c2)NC(=O)Cn2nc(C(F)(F)F)c3c2C(F)(F)[C@@H]2C[C@H]32)n1)S(C)(=O)=O"
unitofmeasure = "µM·h"
valueobserved = 135


----------
# testMethodNotes: PK of compound of Formula (Ia) after single subcutaneous dose of solution formulations in Wistar Han rats
# Type: in vivo
# experimentalParameters: male, Wistar Han, rat, plasma, sc, 50 mg/kg, male Wistar Han rats, single SC 50 mg/kg, 400 mg/mL solution Z (3.13% poloxamer 188), mean ± SD, n = 4; read-out: AUC0-168 h
# Description: Formulations containing the compound of Formula (Ia), or a pharmaceutically acceptable salt thereof, were prepared as solutions and optionally administered subcutaneously or intramuscularly to rats, rabbits, and/or dogs. A solution of about 400 mg/mL of the compound of Formula (Ia) having 19.14 w/w % water, 40.66 w/w % PEG 300, 35.20 w/w % of a sodium salt of a compound of Formula (Ia), and 5.00% ethanol was prepared. […]
assayMetric: AUC(0-t)

[[record]]
smilesrepr = "CC(C)(C#Cc1ccc(-c2ccc(Cl)c3c(NS(C)(=O)=O)nn(CC(F)(F)F)c23)c([C@H](Cc2cc(F)cc(F)c2)NC(=O)Cn2nc(C(F)(F)F)c3c2C(F)(F)[C@@H]2C[C@H]32)n1)S(C)(=O)=O"
valueobserved = "23.9 µM·h"


----------
# testMethodNotes: PK of compound of Formula (Ia) after single subcutaneous dose of solution formulations in beagle dogs
# Type: in vivo
# experimentalParameters: male, beagle, dog, plasma, sc, 12 mg/kg, male beagle dogs, single SC 12 mg/kg, 400 mg/mL solution Y (water, PEG 300), mean ± SD, n = 3; read-out: AUC0-2352 h
assayMetric: AUC(0-t) (µM·h)

[[record]]
compound = "CC(C)(C#Cc1ccc(-c2ccc(Cl)c3c(NS(C)(=O)=O)nn(CC(F)(F)F)c23)c([C@H](Cc2cc(F)cc(F)c2)NC(=O)Cn2nc(C(F)(F)F)c3c2C(F)(F)[C@@H]2C[C@H]32)n1)S(C)(=O)=O [compound of Formula (Ia)]"
unitofmeasure = "µM·h"
valueobserved = 200


----------
# testMethodNotes: PK of compound of Formula (Ia) after single subcutaneous dose of solution formulations in Wistar Han rats
# Format: in vivo
# experimentalParameters: male, Wistar Han, rat, plasma, sc, 50 mg/kg, male Wistar Han rats, single SC 50 mg/kg, 400 mg/mL solution Z (3.13% poloxamer 188), mean ± SD, n = 4; read-out: AUC0-1344 h
# Experimental: Formulations containing the compound of Formula (Ia), or a pharmaceutically acceptable salt thereof, were prepared as solutions and optionally administered subcutaneously or intramuscularly to rats, rabbits, and/or dogs. A solution of about 400 mg/mL of the compound of Formula (Ia) having 19.14 w/w % water, 40.66 w/w % PEG 300, 35.20 w/w % of a sodium salt of a compound of Formula (Ia), and 5.00% ethanol was prepared. […]
assayMetric: AUC(0-t)

[[record]]
smilesrepr = "CC(C)(C#Cc1ccc(-c2ccc(Cl)c3c(NS(C)(=O)=O)nn(CC(F)(F)F)c23)c([C@H](Cc2cc(F)cc(F)c2)NC(=O)Cn2nc(C(F)(F)F)c3c2C(F)(F)[C@@H]2C[C@H]32)n1)S(C)(=O)=O"
valueobserved = "214 µM·h"


----------
# testMethodNotes: PK of compound of Formula (Ia) after single subcutaneous dose of solution formulations in beagle dogs
# Type: in vivo
# experimentalParameters: male, beagle, dog, plasma, sc, 12 mg/kg, beagle dogs, SC 12 mg/kg, 400 mg/mL solution W (5.00% ethanol, 1.57% poloxamer 188), 2352 h, animals #1-#3
assayMetric: concentration at 2352 h (nM)

[[record]]
smilesrepr = "CC(C)(C#Cc1ccc(-c2ccc(Cl)c3c(NS(C)(=O)=O)nn(CC(F)(F)F)c23)c([C@H](Cc2cc(F)cc(F)c2)NC(=O)Cn2nc(C(F)(F)F)c3c2C(F)(F)[C@@H]2C[C@H]32)n1)S(C)(=O)=O"
assaymetric = "concentration at 2352 h"
valueobserved = 16.8

